System: MS2 coat protein
protocolText: apparent Kd, MS2 coat protein; higher = weaker binding; RNA-MaP array; FMN 200 µM where present
measurementSetup: ligand present: flavin mononucleotide; designed as: ON switch for flavin mononucleotide
observedProperty: apparent Kd (nM)
Report the value in nM with no unit label.

Challenge: Tell me the measured apparent Kd of GUUACAUGAGGAUCACCCAUGUAUGUGUGGGAGUAAGUGUCUUAGGAUAUCUAUCAUUGAAUUUAAGAGAAGGAAGAUUGUUGU , please.
Response given: 126

Challenge: Tell me the measured apparent Kd of UCAUUUACCACAGGAUAUAUUCAUAUACAGUUGUUUGGCUCUUACAUGUUAGUAGAAGGGUGCAACAUGAGGAUCACCCAUGUA , please.
Response given: 163

Challenge: Tell me the measured apparent Kd of UGGUACUAGGGAGGAUAUGGGAAGAUACAUGAGGAUCACCCAUGUUUAAGAGUGCCGAGAGGCAACUAGAAGGCCCUAGUACCU , please.
Response given: 83

Challenge: Tell me the measured apparent Kd of AAUGGGCAGCAGAAGGCAUGUCAUAAGACAUGAGGAUCACCCAUGUAGUUAAGGCGAAAGCCGCAUGAGGAUAUGCUGCCCUAA , please.
Response given: 6.71

Challenge: Tell me the measured apparent Kd of GGUACCAACACAGGAUAUGCUAUCCUUUGGGUAGCAGAAGGGUGAAACAUGAGGAUCACCCAUGUGGUGCCAGGGCGUGAGCCC , please.
Response given: 96.2

Challenge: Tell me the measured apparent Kd of ACACAUGAGGAUCACCCAUGUAGCUGGCGUCUGCGCCAGCCACAGGAUAUACGGCUACACAAGCCGUAGAAGGGUGAUAAACAC , please.
Response given: 27.2

Challenge: Tell me the measured apparent Kd of GACUCUAAGUUUGUCAGUUAGAGAGAGGAUAUGGAAAACUUGACAUGAGGAUCACCCAUGUAUAAUCAGAAGGCUCGAGUACGA , please.
Response given: 8.91

* * *

Assignment: determine reported apparent Kd for the given sequences.
Test system: MS2 coat protein
protocolText: apparent Kd, MS2 coat protein; higher = weaker binding; RNA-MaP array; FMN 200 µM where present
measurementSetup: designed as: OFF switch for flavin mononucleotide; no ligand
Report the value in nM with no unit label.

Challenge: Tell me the measured apparent Kd of UUAAUUUUAUGAUAUUAUGACAUUAGAAGGCUGUACAUGUUGAUACAUGAGGAUCACCCAUGUAUAGAGGAUAUAGACAAUUUU , please.
Response given: 32.4

Challenge: Tell me the measured apparent Kd of GGUGAGUGAGGAUAUCCAGGUCCUGACAUGAGGAUCACCCAUGUAUACGUCACGUGCGGAGGAGAAGGCACAAUAA , please.
Response given: 91.1

Challenge: Tell me the measured apparent Kd of GAGACGUCAGGAUAUCUGAUGUCUAACUUCGGUUAGACAUCAGAGAAGGGACAUGAGGAUCACCCAUGUCUCAA , please.
Response given: 16.9

Challenge: Tell me the measured apparent Kd of UGAACUAUGUAGAAGGCCCAUAUCUAUAUUUAGGGAGGAUAUACAUGAGGAUCACCCAUGUAUAGAGCGGGUGGACCCGUCACU , please.
Response given: 39

* * *

System: MS2 coat protein
protocolText: apparent Kd, MS2 coat protein; higher = weaker binding; RNA-MaP array; FMN 200 µM where present
measurementSetup: designed as: ON switch for flavin mononucleotide; no ligand
Binary classification by apparent Kd, with 100 nM as an inclusive lower bound for label 1; all other cases are label 0.

Challenge: Could you verify whether the entry ACAUACAUUCGAGGAUAUCGGUGAACAAAUUAACGAGAAGGCGAUAUAAGUUUUAAUCUUAUGAACAUGAGGAUCACCCAUGUA shows apparent Kd of no less than 100 nM?
Response given: label 0

Challenge: Could you verify whether the entry CGAGUACAUGAGGAUCACCCAUGUAAUGAAUUGUCAGGAUAUGGAGAUUGAUGACAUGCGCCAGAAGGGACAUCUG shows apparent Kd of no less than 100 nM?
Response given: label 0

Challenge: Could you verify whether the entry CGUAGGAUCCAGAAGGCAUGAACAUGAGGAUCACCCAUGUGAAAACACAUGAGGAUAUGGAUCCUACGAAAAGUGCGAAAGCAC shows apparent Kd of no less than 100 nM?
Response given: label 0

Challenge: Could you verify whether the entry GCUGCUAUCGCAGGAUAUUACAUGGGAAAUAAGACAUGAGGAUCACCCAUGUUAAAUAUCGUAAAUAAGAAGGGCGAUAGCAGC shows apparent Kd of no less than 100 nM?
Response given: label 1

Challenge: Could you verify whether the entry CAAUUGGCACAGAAGGGUGACAUGAGGAUCACCCAUGUAGCGUGGCAUUCAGGAGGAGCCACGCCACAGGAUAUGUGCGGGCAC shows apparent Kd of no less than 100 nM?
Response given: label 1

Challenge: Could you verify whether the entry UUGGACGUCGUAGGAUAUGUAGGAUAUUCCUACAUGAGGAUCACCCAUGUUGACAUGCAAGAAGGACAGAAGGACGAUGUCCAU shows apparent Kd of no less than 100 nM?
Response given: label 1

Challenge: Could you verify whether the entry AAUCAACGAAUACCAGGGCAUUAAUGAGAAGGCCAAUCACAUGAGGAUCACCCAUGUACGAGAGUGGAGGAUAUCAGUGGGCCG shows apparent Kd of no less than 100 nM?
Response given: label 1

* * *

Assignment: determine reported apparent Kd for the given sequences.
Tested on: MS2 coat protein
protocolText: apparent Kd, MS2 coat protein; higher = weaker binding; RNA-MaP array
measurementSetup: ligand present: flavin mononucleotide; designed as: ON switch for flavin mononucleotide
Report the value in nM with no unit label.

Challenge: apparent Kd of ACCUAGAGAUAGAAGGUUUAUAUGACCCUACAUGAGGAUCACCCAUGUUGUGGUAUUAUUCGUGAAAAGGAUAUAUCCCGUGAC on MS2 coat protein?
Response given: 7.52

Challenge: apparent Kd of AUGAGUGGCCUGACAUGAGGAUCACCCAUGUCAAAUAAUGCAAGAAGGGACCUUUAUUCAAGGUGUCAGGAUAUUGAUUAAACC on MS2 coat protein?
Response given: 12.9

Challenge: apparent Kd of GCCCAUUAAGACAUGAGGAUCACCCAUGUCACCGGGUAUGCCAGAAGGCUCUUAUAGAAGUAACGAGAGGAUAUGGGUGCUACU on MS2 coat protein?
Response given: 13.8

Challenge: apparent Kd of ACAAGGCUUACAGGAUAUGUGCGUCAUACAAAACAUGAGGAUCACCCAUGUGCCCCAGCGUCUUCACAGAAGGGUACAAGCGUU on MS2 coat protein?
Response given: 12.4

Challenge: apparent Kd of AACAUGGAUCAAGGAUAUGCAAAGCGCUCGAUAAACAUGAGGAUCACCCAUGUGGCAGUCACAACGCAGAAGGUGACUAUAAUA on MS2 coat protein?
Response given: 19.3

Challenge: apparent Kd of ACUCGAUUACACAACCCGACAUGAGGAUCACCCAUGUAUCCGAGAAGGGCUAAUAUAUUCAGGAAGCAGGAUAUCGAAUCAAUA on MS2 coat protein?
Response given: 50.5

Challenge: apparent Kd of UAACAUGAGGAUCACCCAUGUACGAAGAGGGAAAGAAAAGUCAAGGAUAUGCGGAUUUAACUAGCGCAGAAGGUGAUCUAAGUU on MS2 coat protein?
Response given: 114

Challenge: apparent Kd of UUGAGACAACACCCAACAUGAGGAUCACCCAUGUCACCGAGAGAGGAUAUGCACGAGUAGGUCCAGCAGAAGGCUCUAUGUCAA on MS2 coat protein?
Response given: 15.9

Challenge: apparent Kd of CACCGGAAUGGAGGAUAUCCUACACAUGAGGAUCACCCAUGUUAUUUAUAGCUAUUAAAAGUUCGGGAGAAGGCCAAGCGAUUC on MS2 coat protein?
Response given: 13.2

Challenge: apparent Kd of GGUCCGACAACAGGAUAUGUCAUACGCUAAUGAACAGAAGGGUUACAUGAGGAUCACCCAUGUGCUUACACAUGCUCCGGAGCA on MS2 coat protein?
Response given: 17.1

Challenge: apparent Kd of ACAGUAAAUGUGUAGGAUAUGAACUAAACCACAUGAGGAUCACCCAUGUAACGAUUGGAUGGCCUUCAGAAGGACAGGGUUAUUGC on MS2 coat protein?
Response given: 215

Challenge: apparent Kd of AGGAACGUAGAGAAGGGAUCAAUUCGGUACAUGAGGAUCACCCAUGUGAUGGCCAAACUUCGAAAUCAGGAUAUCUCAUAAUAC on MS2 coat protein?
Response given: 14.2

Challenge: apparent Kd of CGACUGAAUAGGCAGUACACAUGAGGAUCACCCAUGUUAGCAAGAAGGCAAGAGCCAGCGGAGCUUGAGGAUAUUGAAGAUCUC on MS2 coat protein?
Response given: 27.4

Challenge: apparent Kd of CACAACGGUAGUUAGGAUAUCCAUAUGCGUACAUGAGGAUCACCCAUGUAAUUACAGAAAUGAUAGGAGAAGGAACGCAUCCGAAA on MS2 coat protein?
Response given: 21

Challenge: apparent Kd of AUAAAACGAGUGCAGGAUAUUCCGUCGCGCACAUGAGGAUCACCCAUGUCAAUUGGGCAUCGUACGAAGAAGGGCAAAUACCAGCG on MS2 coat protein?
Response given: 76.4

Challenge: apparent Kd of UGCCCUACAUGAGGAUCACCCAUGUACAUAACAUGAGUGCGCAGAAGGUAUGCGUUGAAGAGCCAUAAGGAUAUGCAAACCGUC on MS2 coat protein?
Response given: 71.1

Challenge: apparent Kd of CAUUAAACAGCAGGAUAUACUAGUGUGAUACUGGUAGAAGGGCUCCUCACCCACAUGAGGAUCACCCAUGUGACAUCUACCUUA on MS2 coat protein?
Response given: 146

Challenge: apparent Kd of AGUCAAGAGUAGAAGGGUGGAAAUUCGGUCGACACAGGAUAUACUUCAGGAGCCAGAAGACAAUAACAUGAGGAUCACCCAUGU on MS2 coat protein?
Response given: 9.27

Challenge: apparent Kd of UACUUCACGAUACAGGAUAUACGUAAGUUCACAUGAGGAUCACCCAUGUUAGCACACCAACUCAUGUAGAAGGGUAUCCCUAUAUA on MS2 coat protein?
Response given: 13.1

Challenge: apparent Kd of GAAAAUUCCUAGAAGGCGGAUUAUACUUGGUUGAACAUGAGGAUCACCCAUGUAUCUGGCAAACCCGAGGAUAUAGAUUUUCCA on MS2 coat protein?
Response given: 31.2

Challenge: apparent Kd of UAGGUACAUGAGGAUCACCCAUGUCCUAUUACUACAGGAUAUAGCGUGCCUAGAUGGGUGCUAGAAGGGUAGAUCU on MS2 coat protein?
Response given: 9.13

Challenge: apparent Kd of AAAUAAAUAGCAGGAUAUGGGAAACAUGAGGAUCACCCAUGUCAUAAAUAGCGAAAAUAACACAUCCAGAAGGGCAAGAAUCAA on MS2 coat protein?
Response given: 137

Challenge: apparent Kd of UGUUUACAUGAGGAUCACCCAUGUGUUAUCGUAUUAGGAUAUGCAUGACGAUGAUUUUCGGCAGAAGGAAUGCGCA on MS2 coat protein?
Response given: 101

Challenge: apparent Kd of GCAUACAGCAAGAAGGUGGCAUCGACUAUGGCCCAAGGAUAUUGCGGUACUACAUGAGGAUCACCCAUGUGUUCAUGAUUAUAG on MS2 coat protein?
Response given: 30.2

Challenge: apparent Kd of CUAACCACAAUAGGAUAUCGGGCUCGUUUCAUUGCUGCAAAACAUGAGGAUCACCCAUGUCCGUCCGAGAAGGAUUGUAAGAAU on MS2 coat protein?
Response given: 14.8

Challenge: apparent Kd of AACUAACAUAGUUAACAACAUGAGGAUCACCCAUGUCGCAUGUAGGAUAUGGUAGAGGACACAACCCAGAAGGACAUAACAUAA on MS2 coat protein?
Response given: 22.9

Challenge: apparent Kd of UAUAGGACUUAAGGAUAUGGCACCGGUGUCCCGCCAGAAGGUAAGGACCACACAUGAGGAUCACCCAUGUUCUCGAGAAUGGGA on MS2 coat protein?
Response given: 112

Challenge: apparent Kd of CAAGCAUGAGAGAAGGUCCCAUCUAAACAUGAGGAUCACCCAUGUGAUACGGUGCUAUUGUGAAGGAAGGAUAUCUCAGUUAAU on MS2 coat protein?
Response given: 16.8

Values were extracted from the EternaBench riboswitch data.
